Just for reference, patent US7651978B2 is where these values come from.

test system: Bromus; assay: Pre-emergence test/greenhouse; assay type: in vivo; conditions: 30 g of ai./ha, after three weeks
Counter-ions that a name gives are not always drawn.
// degree of damage, Bromus lookup, one value per entry
Reply with just the number (in %).

// below: answered compounds
Compound | degree of damage, Bromus (%)
COc1nn(C(=O)NS(=O)(=O)c2ccccc2OC(F)F)c(=O)n1C [(E)] | 0
CCn1c(OC)nn(C(=O)NS(=O)(=O)c2ccccc2OC(F)(F)F)c1=O | 40

What measured degree of damage, Bromus goes with COc1nn(C(=O)NS(=O)(=O)c2ccccc2OC(F)(F)F)c(=O)n1C [(I)-Na-salt] ?
100

What measured degree of damage, Bromus goes with `COn1c(C)nn(C(=O)NS(=O)(=O)c2ccccc2OC(F)(F)F)c1=O` ?
0

###

test system: Bromus; experiment: Post-emergence test/greenhouse; format: in vivo; conditions: 60 g ai./ha, after three weeks
Where a name gives a salt, the structure may show the parent alone.
Assay metric: degree of damage, Bromus (%)
Reply with just the number (in %).

// below: answered compounds
Compound | Target or system | degree of damage, Bromus (%)
COn1c(C)nn(C(=O)NS(=O)(=O)c2ccccc2OC(F)(F)F)c1=O | Bromus | 0
COc1nn(C(=O)NS(=O)(=O)c2ccccc2OC(F)F)c(=O)n1C [(E)] | Bromus | 0
CCn1c(OC)nn(C(=O)NS(=O)(=O)c2ccccc2OC(F)(F)F)c1=O | Bromus | 40

Turning now to a further record.
What measured degree of damage, Bromus goes with COc1nn(C(=O)NS(=O)(=O)c2ccccc2OC(F)(F)F)c(=O)n1C [(I)-Na-salt] ?
90

###

tested on: Alopecurus; assay: Pre-emergence test/greenhouse; type: in vivo; details: 504 h, 30 g of ai./ha, after three weeks, read-out: degree of damage, Alopecurus
Where a name gives a salt, the structure may show the parent alone.
Binary call on pest or weed control at 30 g/ha: condition met from 70% upward, condition not met beneath that.

Compound | Target or system | Label
CCn1c(OC)nn(C(=O)NS(=O)(=O)c2ccccc2OC(F)(F)F)c1=O | Alopecurus | condition not met
COc1nn(C(=O)NS(=O)(=O)c2ccccc2OC(F)(F)F)c(=O)n1C [(I)-Na-salt] | Alopecurus | condition met
COc1nn(C(=O)NS(=O)(=O)c2ccccc2OC(F)F)c(=O)n1C [(E)] | Alopecurus | condition not met

Could you verify whether the entry `COn1c(C)nn(C(=O)NS(=O)(=O)c2ccccc2OC(F)(F)F)c1=O` shows pest or weed control at 30 g/ha of no less than 70%?
condition not met

###

Test system: Polygonum
Test: Pre-emergence test/greenhouse
Type: in vivo
Conditions: 30 g of ai./ha, after three weeks
Method: Pre-Emergence Test/Greenhouse Solvent: 5 parts by weight of acetone Emulsifier: 1 part by weight of alkylaryl polyglycol ether To produce a suitable preparation of active compound, 1 part by weight of active compound is mixed with the stated amount of solvent, the stated amount of emulsifier is added and the concentrate is diluted with water to the desired concentration. Seeds of the test plants are sown in normal soil. […]
Counter-ions that a name gives are not always drawn.
# label = MET if degree of damage, Polygonum < 70% else NOT MET

Study these solved cases before continuing.
Compound | Label
CCn1c(OC)nn(C(=O)NS(=O)(=O)c2ccccc2OC(F)(F)F)c1=O | MET
COn1c(C)nn(C(=O)NS(=O)(=O)c2ccccc2OC(F)(F)F)c1=O | MET
COc1nn(C(=O)NS(=O)(=O)c2ccccc2OC(F)F)c(=O)n1C [(E)] | MET
COc1nn(C(=O)NS(=O)(=O)c2ccccc2OC(F)(F)F)c(=O)n1C [(I)-Na-salt] | NOT MET

Here's an entry: `CCOc1nn(C(=O)NS(=O)(=O)c2ccccc2OC(F)(F)F)c(=O)n1C` . Is its degree of damage, Polygonum below 70%?
NOT MET

###

// degree of damage, Wheat lookup, one value per entry
tested on: Wheat; assay: Pre-emergence test/greenhouse; type: in vivo; settings: pre-emergence, 30 g of ai./ha, after three weeks; 0%=no effect, 100%=total destruction
Reply with just the number (in %).

Compound | Unit of measurement | Experimental result
COn1c(C)nn(C(=O)NS(=O)(=O)c2ccccc2OC(F)(F)F)c1=O | % | 0
CCOc1nn(C(=O)NS(=O)(=O)c2ccccc2OC(F)(F)F)c(=O)n1C | % | 50
COc1nn(C(=O)NS(=O)(=O)c2ccccc2OC(F)F)c(=O)n1C [(E)] | % | 0
CCn1c(OC)nn(C(=O)NS(=O)(=O)c2ccccc2OC(F)(F)F)c1=O | % | 0

Turning now to a further record.
Find the measured degree of damage, Wheat: item `COc1nn(C(=O)NS(=O)(=O)c2ccccc2C(F)(F)F)c(=O)n1C` , target or system Wheat.
0
